target: GPNMB-V5His (recombinant human GPNMB extracellular domain with C-terminal V5-His tag) (human) (UniProt Q14956); experiment: ELISA, coated GPNMB, Ab 1 ug/mL
quantity_name: Avg OD (OD)
Report the figure in OD without appending any unit label.

>>> result_number("2-15 (hybridoma of Table 6) (antibody, V domains shown) VH: QVQLVESGGGVVQPGRSLRLSCAASGFTFSNYGIHWVRQAPGKGLEWVAVIWFDGRNKYYADSVKGRFTISRDNSKNTLYLQMNSLRAEDAAVYYCARDPFDYGDSFFDYWGQGTLVTVSS VL: LTQSPSSLSASVRDRVTITCRASQDISNYLAWYQQKPGKVPNLLIYAASTLQSGVPSRFSGSGSGTDFTLTISSLQPEDVATYYCQKYNSAPLTFGGGTKVEIKR")
0.568

Give the measured Avg OD of 1.7.3 (antibody, V domains shown) VH: QVQLQESGPGLVKPSQTLSLTCTVSGGSISSANYYWTWIRQHPGKGLEWIGYIYYSGSTYCNPSLKSRVIISVDTSKNQFSLKLSSVTAADTAVYYCARGYNWNYFDYWGQGTLVTVSS VL: DIVMTQSPATLSVSPGERATLSCRASQSVSSNLAWYQERPGQAPRLLIYGASTRATGIPARFSGSGSGTEFTLTISSLQSEDFAVYYCQQYNKWPPWTFGQGTKVEIER .
0.871

Also 2-16 (hybridoma of Table 6) (antibody, V domains shown) VH: QVQLVESGGGLVKPGGSLRLSCAASGFTFSDYYMTWIRQAPGKGLEWVSYISISGSITHYADSVKGRFTMSRDNAKNSLYLQMNSLRAEDTAVYYCARDGAAAGTDAFDIWGHGTKVTVSS VL: EIVMTQSPATLSVSPGDRATLSCRASQNVSSNLAWYQQKPGQAPRLLIFGASTRATGIPARFSGSGSGTEFTLTISSLQSEDFAVYYCQQYHYWPTFGPGTKVDIKR ?
0.173

Same for 2-17 (hybridoma of Table 6) (antibody, V domains shown) VH: QLVQSGAEVKKPGASVKVSCKASGYTFTGFYMHWVRQTPGQGLEWMGWINPNSGGTYYVQKFQGRVTMTRDTSISTVYMELSRLRSDDTAVYYCARDGYSSGEDWFDPWGQGTLVTVSS VL: DIVMTQTPLSLSVTPGQPASISCKSSQSLLHSGGKTYLYWYLQRPGQPPQLLIYEVSNRFSGVPDRFSGSGSGTDFTLKISRVEAEDVGVYYCMQSIHLPLTFGGGTKVEIKR
0.019

Repeat with Mab1.2.2 (antibody, human IgG2, V domains shown) VH: ITLKESGPTLVKPTQTLTLTCTFSGFSLSAGGVGVGWIRQPPGKALEWLALIYWNDDKRYSPSLRSRLTITKDTSKNQVVLTITNMDPVDTATYYCAHSHYDYDWGSYFDYWGQGTLVTVSS VL: DIVMTQTPLSLPVTPGEPASISCRSSQSLLDSDDGNTYLDWYLQKPGQSPQLLIYTLSYRASGVPDRFSGSGSGTDFTLNISRVEAEDVGVYYCMQRIEFPITFGQGTRLEIKR
0.499
